tested on: P. aeruginosa strain WC-453; experiment: Time-kill assay in HEPES or CAA with 25% human serum (Tables 7, 8); type: cell-based, Pseudomonas aeruginosa; details: 25 mM HEPES pH 7.4; lysin 10 μg/ml; 1 hr; WC-453
measure name: HEPES (Log10 CFU/mL), 1 hr
Just the number please, in Log10 CFU/mL, no unit attached.

# query: HEPES (Log10 CFU/mL), 1 hr of entry GN93: lysin-AMP construct: cationic peptide (SEQ ID NO: 120) and linker N-terminal to GN14 lysin (SEQ ID NO: 62) (protein) MKFFKFFKFFKAGAGAGAGAGAGAGAGASNNELPWVAEARKYIGLREDTSKTSHNPKLLAMLDRMGEFSNESRAWWHDDETPWCGLFVGYCLGVAGRYVVREWYRARAWEAPQLTKLDRPAYGALVTFTRSGGGHVGFIVGKDARGNLMVLGGNQSNAVSIAPFAVSRVTGYFWPSFWRNKTAVKSVPFEERYSLPLLKSNGELSTNEA 6.0
